This section lists IC50 readings for Adenosine kinase (Rattus norvegicus, UniProt Q64640).
assayReadout: IC50 (nM)

a. Nc1ccc(-c2cnc3c(N)ncnc3n2)cc1
b. CN(C)c1ccc(-c2cc(-c3cccc(Br)c3)c3c(N)ncnc3n2)cn1
input: Hello, I am sorting some records. Could you say if a or b has the smaller IC50 value? I would appreciate it if you answered with the label of your choice.
output: b

I. Nc1ncnc(N[C@@H]2O[C@H](CO)[C@@H](O)[C@H]2O)c1[N+](=O)[O-]
II. CN(C)c1ccc(-c2ccc3c(N)ncnc3n2)cc1
III. Nc1ncnc2nc(-c3ccc(N4CCOCC4)nc3)cc(-c3cccc(Br)c3)c12
input: List these items ordered by IC50, big to small. // format: requested-order list of labels
output: I, II, III
(I: 2000 nM, II: 773 nM, III: 1.7 nM)
